- experimental_protocol: Dynamic light scattering (DLS) size of peptide nanoparticles
- Format: physicochemical
- settings: empty peptide nanoparticles 0.5 mg/mL, Tables S1 and S2, mean ± SEM (n=3)
reported_endpoint: Hydrodynamic diameter (nm)
The reply should be a number in nm, with the unit left off.

Query Arg-His-(Gly-Phe-Lue-Gly)3 [LL] yields Hydrodynamic diameter of 118
